Test system: TO-N3 (biotin conjugate)
Assay: pull-down binding Z-score (relative to library population); higher = stronger binding
Settings: RNA library: Library-2
# pull-down binding Z-score annotations

| sequence_content | pull-down binding Z-score |
| --- | --- |
| UUUACAUAUAAAUUUCUAUUUGU [hsa-mir-4503] | 0.596 |
| UAAAGCCACGUAUAAACCAAAUACCUGGUGUAUACGUUGUCUUUG | -0.75 |
| GUCUCCUACUAAAUUAAAUGAUCUCUGCUUUACUAAUGUCUAUGCAGAUUCAUUUGUAAUUAGAGGUGAU | -0.922 |
| UUUGGUAUUACUUUCAGUGGCAAA [hsa-mir-548j] | -0.448 |
| GUUGCGUCACCAAAUGAAUGCAAC | -1.3 |
| AACAACAGCAUCAGAAGCAACAUCAGCUUUAGUU [hsa-mir-569] | 0.9 |
| CCCACCCUGAGUUUUGGUGGG [hsa-mir-6508] | -0.245 |
| UGUGGCAGUGGCAGAGGUCGCUACA [hsa-mir-6856] | 0.704 |
| UCCACACGCAAGUUGUGGA | -1.18 |
| UGGAGCCAGGGGGCCCAGGUCUACAGCUUCUCCCCGCUCCC [hsa-mir-6752] | 0.328 |
| CCUCUAAAAGCCCCAAAAGAAAUUAUCUUCUUAGAGGGAGAAACACUUCCCACAGAAGUGUUAACAGAGG | -0.162 |
| UCCAACCUGAAAUCCUUCUGUAGGUUGAG [hsa-mir-5702] | -0.245 |
| GCCUCUUCUCCAUGAGAGGC [hsa-mir-885] | -1.07 |
| CAGCCCCGUGUGUUGAGGAAGGAAGG [hsa-mir-940] | 1.24 |
| CUUUUGAAGAAG [SHAPE_invivo_SARS-CoV-2_Motif_195] | -1.16 |
| GGAGGCACUGCCAGGGCUGCCCAC [hsa-mir-1202] | 1.21 |
| GCUGUUGGUACCAAUUUACCUUUACAGC [SHAPE_invitro_SARS-CoV-2_Motif_335] | 0.215 |
| AUCAGCAGAGACAUGAGGUGAUCAAAAACCUUUUUUCAAAGCAGUGGG [hsa-mir-4300] | 0.796 |
| GCCUGCCCUGAGUCCCCCAGCAGGU [hsa-mir-3907] | 1.46 |
| AAGGUAAGAGGGAUACUUACCUG [U1snRNP5ss-26] | -0.673 |
| GGUUUUGCCAUCAUGCCAAAAGCU [hsa-mir-548v] | 0.277 |
| GUUGUCUUUGAUGAAAUUUCAAUGGCCAC [DMSMaPseq_invitro_SARS-CoV-2_Motif_310] | -0.615 |
